Recorded values, source patent US20260209352A1.

Molecular target: T1, Human CD3 on Human CD3+ Jurkat cells (human, UniProt P07766 23-207)
T1 construct: whole, on cells; CD3 complex on cells; also called hCD3
T1 sequence (P07766 23-207): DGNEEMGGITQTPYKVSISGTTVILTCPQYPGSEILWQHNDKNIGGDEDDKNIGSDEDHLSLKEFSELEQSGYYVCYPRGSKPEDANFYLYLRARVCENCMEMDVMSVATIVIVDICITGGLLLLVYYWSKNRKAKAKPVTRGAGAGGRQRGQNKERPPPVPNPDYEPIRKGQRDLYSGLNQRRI
Assay: cell binding hCD3, fold over background
Quick rule for you: Cell Binding hCD3 (FOB) under 30 FOB gets Criterion met, anything else gets Criterion not met.

Given ADI-45976 (antibody, V domains shown, also called Ab12) VH: QVQLVQSGAEVKKPGASVKVSCKASGFNIKDYYMHWVRQAPGQRLEWIGWIDLENANTVYDAKFQGRVTITRDTSASTAYMELSSLRSEDTAVYYCVRDAYGRYFYDVWGQGTLVTVSS VL: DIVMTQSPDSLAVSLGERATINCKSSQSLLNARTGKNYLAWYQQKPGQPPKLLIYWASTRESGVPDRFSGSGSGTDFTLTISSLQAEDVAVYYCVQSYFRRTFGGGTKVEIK , is recorded Cell Binding hCD3 (FOB) strictly lower than 30 FOB?
Criterion not met

Report whether reported Cell Binding hCD3 (FOB) is lower than 30 FOB (strictly) for ADI-45975 (antibody, V domains shown, also called Ab11) VH: QVQLVQSGAEVKKPGASVKVSCKASGFNIKDYYMHWVRQAPGQRLEWIGWIDLENANTVYDAKFQGRVTITRDTSASTAYMELSSLRSEDTAVYYCARDAYGQYFYDVWGQGTLVTVSS VL: DIVMTQSPDSLAVSLGERATINCKSSQSLLNARTRKNYLAWYQQKPGQPPKLLIYWASTRESGVPDRFSGSGSGTDFTLTISSLQAEDVAVYYCKQSYFRRTFGGGTKVEIK
Criterion not met

In plain terms, does ADI-45965 (antibody, V domains shown, also called Ab28) VH: QVQLVQSGAEVKKPGASVKVSCKASGFNIKDYYMHWVRQAPGQRLEWIGWIDLENANAVYDAKFQGRVTITRDTSASTAYMELSSLRSEDTAVYYCARDAYGRYFYDVWGQGTLVTVSS VL: DIVMTQSPDSLAVSLGGRATINCKSSQSLLNARTGKNYLAWYQQKPGQPPKLLIYWASTRESGVPDRFSGSGSGTDFTLTISSLQAEDVAVYYCVQSYFRRTFGGGTKVEIK come in under 30 FOB for Cell Binding hCD3 (FOB)?
Criterion not met

Find out if reported Cell Binding hCD3 (FOB) for ADI-45985 (antibody, V domains shown, also called Ab22) VH: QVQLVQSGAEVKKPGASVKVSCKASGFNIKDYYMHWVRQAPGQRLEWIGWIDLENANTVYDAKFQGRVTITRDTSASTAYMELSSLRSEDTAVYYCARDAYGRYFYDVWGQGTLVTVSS VL: DIVMTQSPDSLAVSLGERATINCKTSQSLLNARTNKNYLAWYQQKPGQPPKLLIYWASTRESGVPDRFSGSGSGTDFTLTISSLQAEDVAVYYCVQSYFRRTFGGGTKVEIK is less than 30 FOB
Criterion met

Confirm or reject: Cell Binding hCD3 (FOB) of ADI-45979 (antibody, V domains shown, also called Ab16) VH: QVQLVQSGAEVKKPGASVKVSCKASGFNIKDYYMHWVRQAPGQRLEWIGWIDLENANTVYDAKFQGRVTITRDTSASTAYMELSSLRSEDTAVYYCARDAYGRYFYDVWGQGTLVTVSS VL: DIVMTQSPDSLAVSLGERATINCKSSQELLNARTGKNYLAWYQQKPGQPPKLLIYWASTRESGVPDRFSGSGSGTDFTLTISSLQAEDVAVYYCKQSYFRRTFGGGTKVEIK lies strictly below 30 FOB
Criterion not met
